target_system: human 5-HT1A receptor (Homo sapiens (Human))
Sequence (P08908 whole entry): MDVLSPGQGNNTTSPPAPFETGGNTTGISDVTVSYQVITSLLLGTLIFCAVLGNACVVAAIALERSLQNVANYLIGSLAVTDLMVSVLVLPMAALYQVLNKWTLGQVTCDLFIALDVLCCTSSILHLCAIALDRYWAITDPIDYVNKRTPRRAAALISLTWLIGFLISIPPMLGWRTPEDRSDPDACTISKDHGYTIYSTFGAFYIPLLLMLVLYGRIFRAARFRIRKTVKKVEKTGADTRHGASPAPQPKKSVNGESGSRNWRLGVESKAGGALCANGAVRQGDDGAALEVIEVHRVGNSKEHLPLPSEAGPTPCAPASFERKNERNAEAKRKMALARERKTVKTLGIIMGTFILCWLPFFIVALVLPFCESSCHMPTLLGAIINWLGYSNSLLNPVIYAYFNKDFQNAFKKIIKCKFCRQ
procedure_text: Test 2: binding activity to human 5-HT1A receptor ([3H] 8-OH-DPAT, CHO cell membrane)
study_conditions: [3H] 8-OH-DPAT; read-out: 5-HT1A binding affinity (Ki value)
pKi: −log10 of the molar value.
// label = t if pKi is not less than 9, otherwise f

I'd appreciate it if you could say whether COc1cccc(C2CCN(CCNC(=O)C3CCOCC3)CC2)n1 has pKi at least equal to 9.
f

Entry Cc1cccc(C2=CCN(CCNC(=O)C3CCOCC3)CC2)n1 : is its pKi no less than 9?
t

Is the recorded value of pKi equal to or greater than 9 for this compound? Cc1cccc(C2=CCN(CCNC(=O)C3CCC(F)(F)CC3)CC2)n1
t

Does the compound O=C(NCCN1CC=C(c2cccc(C(F)(F)F)n2)CC1)C1CCC(F)(F)CC1 have recorded pKi that is 9 or more?
t

Is reported pKi greater than or equal to 9 here: Cc1cccc(C2CCN(CCNC(=O)C3CCCOC3)CC2)n1 (stereo not drawn)
f

Dear colleague, could you confirm whether CO[C@H]1CC[C@H](C(=O)NCCN2CCC(c3cccc(C(F)(F)F)n3)CC2)CC1 has pKi at or above 9?
f

Determine whether this compound has pKi no lower than 9: O=C(NCCN1CCC(c2cccc(C(F)F)n2)CC1)C1CCOCC1
f

Given the entry COCC(C)(C)C(=O)NCCN1CC=C(c2cccc(C)n2)CC1 , answer whether its pKi meets or surpasses 9.
f

Is reported pKi greater than or equal to 9 here: O=C(NCCN1CCC(c2cccc(F)n2)CC1)C1CCOCC1
f

Tell me whether pKi is at least 9 here: O=C(NCCN1CC=C(c2cccc(C(F)(F)F)n2)CC1)C1CCCOC1 (stereo not drawn)
f

---

target_system: human D2 receptor (Homo sapiens (Human))
Sequence (P14416 whole entry): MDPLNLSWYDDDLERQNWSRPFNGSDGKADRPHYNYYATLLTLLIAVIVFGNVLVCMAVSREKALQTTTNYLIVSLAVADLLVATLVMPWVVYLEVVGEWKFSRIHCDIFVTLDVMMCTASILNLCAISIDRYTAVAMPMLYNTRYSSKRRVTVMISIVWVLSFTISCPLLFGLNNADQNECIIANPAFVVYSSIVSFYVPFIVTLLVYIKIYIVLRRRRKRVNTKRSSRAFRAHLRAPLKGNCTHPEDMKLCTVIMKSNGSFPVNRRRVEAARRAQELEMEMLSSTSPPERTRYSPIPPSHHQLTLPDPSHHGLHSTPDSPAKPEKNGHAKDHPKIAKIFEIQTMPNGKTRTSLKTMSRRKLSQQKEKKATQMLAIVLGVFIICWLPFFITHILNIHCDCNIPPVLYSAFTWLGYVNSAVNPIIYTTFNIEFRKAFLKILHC
procedure_text: Test 2: binding activity to human D2 receptor ([3H] spiperone, CHO cell membrane)
pKi: −log10 of the molar value.
measured_property: pKi

Quick check: pKi on human D2 receptor (Homo sapiens (Human)), item Cc1cccc(C2=CCN(CCNC(=O)C3CCCCO3)CC2)n1 (stereo not shown) ?
< 5.00

---

target_system: hERG channel (Homo sapiens (Human), UniProt Q12809)
Sequence (Q12809 whole entry): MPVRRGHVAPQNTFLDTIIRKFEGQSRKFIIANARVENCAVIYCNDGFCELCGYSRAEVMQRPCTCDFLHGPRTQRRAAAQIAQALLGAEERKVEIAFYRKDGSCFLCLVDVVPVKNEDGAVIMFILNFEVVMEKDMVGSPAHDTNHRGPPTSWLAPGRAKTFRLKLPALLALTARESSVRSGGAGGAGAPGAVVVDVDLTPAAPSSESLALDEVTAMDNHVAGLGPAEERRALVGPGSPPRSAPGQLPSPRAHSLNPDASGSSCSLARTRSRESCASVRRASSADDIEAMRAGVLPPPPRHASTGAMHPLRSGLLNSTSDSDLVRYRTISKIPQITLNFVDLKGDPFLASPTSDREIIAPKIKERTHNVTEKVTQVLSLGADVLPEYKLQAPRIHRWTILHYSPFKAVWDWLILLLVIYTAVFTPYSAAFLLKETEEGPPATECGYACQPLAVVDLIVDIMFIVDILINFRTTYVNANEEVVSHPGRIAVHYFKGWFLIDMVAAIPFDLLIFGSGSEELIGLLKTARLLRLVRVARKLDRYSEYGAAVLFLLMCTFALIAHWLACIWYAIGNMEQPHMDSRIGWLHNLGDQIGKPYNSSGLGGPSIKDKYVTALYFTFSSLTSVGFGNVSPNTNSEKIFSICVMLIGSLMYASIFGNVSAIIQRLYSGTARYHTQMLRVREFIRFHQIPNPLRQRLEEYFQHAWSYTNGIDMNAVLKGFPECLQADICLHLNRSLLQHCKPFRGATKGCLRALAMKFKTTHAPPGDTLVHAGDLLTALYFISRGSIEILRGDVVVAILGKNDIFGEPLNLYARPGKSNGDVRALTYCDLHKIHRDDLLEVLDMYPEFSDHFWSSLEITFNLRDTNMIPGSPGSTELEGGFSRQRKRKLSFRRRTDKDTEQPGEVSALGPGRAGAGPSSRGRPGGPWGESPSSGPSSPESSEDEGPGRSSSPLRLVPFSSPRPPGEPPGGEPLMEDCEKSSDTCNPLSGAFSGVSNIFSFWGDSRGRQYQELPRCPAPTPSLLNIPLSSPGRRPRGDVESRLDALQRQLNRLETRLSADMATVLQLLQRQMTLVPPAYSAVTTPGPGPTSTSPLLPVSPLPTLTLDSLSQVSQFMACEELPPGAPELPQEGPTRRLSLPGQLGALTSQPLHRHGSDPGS
procedure_text: Test 5-2: activity for inhibiting hERG channel (whole-cell patch clamp, hERG-CHO cell, Qube)
Assay type: cell-based
study_conditions: read-out: hERG inhibition IC50
pIC50: −log10 of the molar value.
measured_property: pIC50

Sample Cc1cccc(C2=CCN(CCNC(=O)C3CCCCO3)CC2)n1 (stereo not shown) — what was its pIC50?
< 5.00

Reported pIC50 for O=C(NCCN1CCC(c2cccc(C(F)(F)F)n2)CC1)C1CCCO1 (stereo not shown) : what is it?
< 5.00

Quick one: pIC50 of COCC(C)(C)C(=O)NCCN1CC=C(c2cccc(C(F)(F)F)n2)CC1 ?
< 5.00

Please report the recorded pIC50 for Cc1cccc(C2=CCN(CCNC(=O)C3CCOCC3)CC2)n1 .
< 5.00

Please give the measured pIC50 for this molecule: Cc1cccc(C2CCN(CCNC(=O)C3CCCOC3)CC2)n1 (stereo not shown)
< 5.00

Name the reported pIC50 value associated with the molecule COc1cccc(C2CCN(CCNC(=O)C3CCOCC3)CC2)n1
< 5.00

Which pIC50 value belongs to O=C(NCCN1CCC(c2cccc(OC(F)(F)F)n2)CC1)C1CCOCC1 ?
< 5.00

What value of pIC50 has been recorded for this entry: CN(C)c1cccc(C2CCN(CCNC(=O)C3CCOCC3)CC2)n1
< 5.00

// query pIC50 value for entry CC(C)(C)C(=O)NCCN1CC=C(c2cccc(C(F)(F)F)n2)CC1
< 5.00

Please give the measured pIC50 for this molecule: O=C(NCCN1CC=C(c2cccc(C(F)(F)F)n2)CC1)C1CCCOC1 (stereo not shown)
< 5.00

pIC50 for O=C(NCCN1CC=C(c2cccc(C(F)(F)F)n2)CC1)C1CCC(F)(F)CC1 ?
5.46

Any idea what its pIC50 is? The molecule is Cc1cccc(C2=CCN(CCNC(=O)[C@H]3C[C@@H]4CC[C@H]3O4)CC2)n1
< 5.00

Name the recorded pIC50 for O=C(NCCN1CCC(c2cccc(C(F)F)n2)CC1)C1CCOCC1 .
5.26

Consider the molecule Cc1cccc(C2=CCN(CCNC(=O)C(C)(C)C)CC2)n1 and give its measured pIC50.
< 5.00

Quick one: pIC50 of Cc1cccc(C2=CCN(CCNC(=O)C3CCC(F)(F)CC3)CC2)n1 ?
5.09

Recorded pIC50 for O=C(NCCN1CCC(c2cccc(C(F)(F)F)n2)CC1)[C@H]1C[C@@H]2CC[C@H]1O2 , please?
< 5.00
